Biological target: Muscarinic acetylcholine receptor M1 (Homo sapiens); note: assay procedure not described here
Sequence (P11229 whole entry): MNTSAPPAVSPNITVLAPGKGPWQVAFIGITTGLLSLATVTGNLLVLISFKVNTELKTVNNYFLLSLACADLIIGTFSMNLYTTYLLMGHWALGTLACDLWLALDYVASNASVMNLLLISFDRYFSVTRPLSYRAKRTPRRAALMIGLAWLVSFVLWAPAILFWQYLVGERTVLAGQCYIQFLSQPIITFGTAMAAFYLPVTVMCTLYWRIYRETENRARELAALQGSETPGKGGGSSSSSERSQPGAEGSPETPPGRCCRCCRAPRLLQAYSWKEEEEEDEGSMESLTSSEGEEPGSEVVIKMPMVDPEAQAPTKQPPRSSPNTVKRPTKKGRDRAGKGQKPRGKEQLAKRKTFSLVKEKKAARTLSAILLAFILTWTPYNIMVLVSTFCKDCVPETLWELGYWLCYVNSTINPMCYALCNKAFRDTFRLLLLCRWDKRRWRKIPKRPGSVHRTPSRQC
Assay type: functional, cell-based
Lab note: anything with AC50 below 0.6 µM is marked rule met; values at 0.6 µM or higher are marked rule not met.

Worked examples follow.
{"columns": ["compound", "label"],
 "data": [
  ["CC(C)(C)N1CCC(c2ccccc2)(c2ccccc2)CC1 [BUDIPINE]", "rule met"],
  ["CCOC(=O)[C@H](CCc1ccccc1)N[C@@H](C)C(=O)N1CC2(C[C@H]1C(=O)O)SCCS2", "rule not met"],
  ["N[C@@H](C(=O)N[C@@H]1C(=O)N2C(C(=O)O)=C(Cl)CC[C@H]12)c1ccccc1 [LORACARBEF ANHYDROUS]", "rule not met"],
  ["CCN(CC)CCOC(=O)C(c1ccccc1)C1CCCCC1 (stereo not drawn) [DROFENINE]", "rule met"]
]}

Lab log: compare recorded AC50 with 0.6 µM; is it strictly lower for CN(C)S(=O)(=O)c1ccc2c(c1)N(CCCN1CCC(CCO)CC1)c1ccccc1S2 [PIPOTIAZINE] ? rule not met

Consider Cc1cc(C#N)cc(C)c1Oc1nc(Nc2ccc(C#N)cc2)nc(N)c1Br [ETRAVIRINE] . Does its AC50 lie strictly below 0.6 µM? rule not met

Determine whether this compound shows AC50 lower than 0.6 µM (ties excluded): CCCCOC(=O)C(=O)[C@H]1[C@H](C)C[C@H]2[C@@H]3C[C@H](F)C4=CC(=O)C=C[C@]4(C)[C@H]3[C@@H](O)C[C@@]21C [FLUOCORTIN BUTYL] rule not met

Hello, is AC50 of the following compound strictly smaller than 0.6 µM? CCCNC(C)C(=O)Nc1c(C)csc1C(=O)OC (stereo not drawn) [ARTICAINE] rule not met

###

The following compounds each carry a recorded AC50 for Sodium-dependent serotonin transporter (Homo sapiens, UniProt P31645).

{"columns": ["compound", "assay-endpoint", "endpoint-value"],
 "data": [
  ["NCC(=O)CCC(=O)O", "AC50", "> 30 µM"]
]}

Reported AC50 for CC1(C)O[C@@H]2C[C@H]3[C@@H]4CCC5=CC(=O)C=C[C@]5(C)[C@H]4[C@@H](O)C[C@]3(C)[C@]2(C(=O)CO)O1 [DESONIDE] : what is it? > 10 µM

Would you kindly share the measured AC50 for Nc1ccn([C@H]2CC[C@@H](CO)O2)c(=O)n1 ? > 10 µM

Request the reported AC50 associated with CN1C(=O)C(O)N=C(c2ccccc2)c2cc(Cl)ccc21 (configuration not stated) > 10 µM

###

AC50 values by entry
Target: 5-hydroxytryptamine receptor 2B (Homo sapiens); note: assay procedure not described here
Sequence (P41595 whole entry): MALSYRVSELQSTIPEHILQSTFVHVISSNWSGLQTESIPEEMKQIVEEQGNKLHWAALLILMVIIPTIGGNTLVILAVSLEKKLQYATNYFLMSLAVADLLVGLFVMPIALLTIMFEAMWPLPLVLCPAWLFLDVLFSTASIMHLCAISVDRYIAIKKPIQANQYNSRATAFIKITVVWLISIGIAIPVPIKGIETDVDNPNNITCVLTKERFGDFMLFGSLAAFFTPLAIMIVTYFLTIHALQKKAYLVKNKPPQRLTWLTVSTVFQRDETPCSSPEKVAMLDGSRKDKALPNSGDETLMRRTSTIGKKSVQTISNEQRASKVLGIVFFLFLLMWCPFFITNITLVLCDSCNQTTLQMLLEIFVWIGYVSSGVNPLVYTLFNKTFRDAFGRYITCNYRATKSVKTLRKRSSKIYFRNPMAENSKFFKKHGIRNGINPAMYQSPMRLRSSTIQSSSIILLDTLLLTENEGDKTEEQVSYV
Assay type: functional, cell-based

The cases that follow already have their AC50 on record.
{"columns": ["compound", "assay-endpoint", "endpoint-value"],
 "data": [
  ["CCOC(=O)[C@H](CCc1ccccc1)N[C@@H](C)C(=O)N1C(=O)N(C)C[C@H]1C(=O)O", "AC50", "> 30 µM"],
  ["O=C1Nc2ccc(Cl)cc2[C@@](C#CC2CC2)(C(F)(F)F)O1", "AC50", "> 10 µM"],
  ["NC(=O)OCC(COC(N)=O)c1ccccc1 [FELBAMATE]", "AC50", "> 10 µM"],
  ["CCCCCCOc1ccccc1C(N)=O [EXALAMIDE]", "AC50", "> 30 µM"],
  ["CCC1(CC)C(=O)NCC(C)C1=O (stereo not drawn)", "AC50", "> 30 µM"],
  ["CC(=O)OCC(=O)[C@@]12N=C(C)O[C@@H]1C[C@H]1[C@@H]3CCC4=CC(=O)C=C[C@]4(C)[C@H]3[C@@H](O)C[C@@]12C", "AC50", "> 30 µM"]
]}

Look at this compound and give its reported AC50. CC(C)C[C@H]1C(=O)N2CCC[C@H]2[C@]2(O)O[C@](NC(=O)[C@@H]3C=C4c5cccc6[nH]c(Br)c(c56)C[C@H]4N(C)C3)(C(C)C)C(=O)N12 25 µM

Find the recorded AC50 belonging to CN1C(=O)OC(C)(C)C1=O and report it. > 10 µM

Need AC50, item CC(=O)NCCCS(=O)(=O)O [ACAMPROSATE] > 30 µM

Name the reported AC50 value associated with the compound Cc1cccc(Nc2ccccc2C(=O)O)c1C > 10 µM

Name the recorded AC50 for COc1cc2nc(N3CCN(C(=O)c4ccco4)CC3)nc(N)c2cc1OC . > 10 µM

Which measured AC50 value corresponds to CC1(C)NC(=O)N(c2ccc([N+](=O)[O-])c(C(F)(F)F)c2)C1=O [NILUTAMIDE] ? > 30 µM

The measurements presented in this section are drawn from ChEMBL document CHEMBL5291721.
